- assay details: first dissolution test in DMSO or water
- conditions: first dissolution test; amount for a 3M solution in 0.5 mL; water, up to 15000 μL
recorded endpoint: Total volume of water for dissolving the p-TSA derivatives

[
  {
    "compound": "Cc1ccc(S(=O)(=O)NC(CO)(CO)CO)cc1",
    "result": "10000 µL"
  },
  {
    "compound": "Cc1ccc(S(=O)(=O)NC[C@@H](O)CO)cc1",
    "result": "insoluble in 15000 μL"
  },
  {
    "compound": "Cc1ccc(S(=O)(=O)N[C@@H](CO)C(=O)O)cc1",
    "result": "insoluble in 15000 μL"
  },
  {
    "compound": "Cc1ccc(S(=O)(=O)N[C@@H](C)CO)cc1",
    "result": "insoluble in 15000 μL"
  }
]

Requested field: Total volume of water for dissolving the p-TSA derivatives. Item: Cc1ccc(S(=O)(=O)NC(=O)NS(=O)(=O)c2ccc(C)cc2)cc1 [PTSA018]
2500 µL

Reported Total volume of water for dissolving the p-TSA derivatives for Cc1ccc(S(=O)(=O)N2CCC(O)C2)cc1 (centres unmarked) : what is it?
insoluble in 15000 μL

Request the reported Total volume of water for dissolving the p-TSA derivatives associated with `Cc1ccc(S(=O)(=O)NCC(F)(F)F)cc1`
insoluble in 15000 μL

Give the measured Total volume of water for dissolving the p-TSA derivatives of `Cc1ccc(S(=O)(=O)NCCO)cc1` .
10000 µL

Data request, read-out Total volume of water for dissolving the p-TSA derivatives, for `Cc1ccc(S(=O)(=O)NCC(=O)O)cc1`
insoluble in 15000 μL

Looking for the measured Total volume of water for dissolving the p-TSA derivatives of `Cc1ccc(S(=O)(=O)N2CC3(COC3)C2)cc1` , can you help?
insoluble in 15000 μL

Quick one: Total volume of water for dissolving the p-TSA derivatives of `Cc1ccc(S(=O)(=O)NC[C@H](C)O)cc1` ?
insoluble in 15000 μL

Endpoint output: Total volume of water for dissolving the p-TSA derivatives of `Cc1ccc(S(=O)(=O)NCCF)cc1` . Value?
insoluble in 15000 μL

Which Total volume of water for dissolving the p-TSA derivatives value belongs to CC(=O)NS(=O)(=O)c1ccc(C)cc1 [PTSA002] ?
insoluble in 15000 μL

Given `Cc1ccc(S(=O)(=O)NC(CO)CO)cc1` , state its recorded Total volume of water for dissolving the p-TSA derivatives.
insoluble in 15000 μL

Entry source: patent US10485773B2
